Reported values: GI50 for throat cancer cell line FaDu, one per item.
property name: GI50

1. Cc1ccc(F)cc1NC(=O)N1Cc2c(NC(=O)C3([Si](C)(C)C)CCC3)n[nH]c2C1(C)C [IV-361] : < 300 nM
2. CC1(C)c2[nH]nc(NC(=O)C3([Si](C)(C)C)CCC3)c2CN1C(=O)Nc1c(F)ccc2ccoc12 [IV-1049] : < 300 nM
3. CC(=O)c1c(C)c2cnc(Nc3ccc(N4CCNCC4)cn3)nc2n(C2CCCC2)c1=O [Palbociclib, palbociclib, reference compound] : ≥ 1000 nM
4. Cc1ccc(C)c(NC(=O)N2Cc3c(NC(=O)C4([Si](C)(C)C)CCC4)n[nH]c3C2(C)C)c1F [IV-669] : < 300 nM

###

Reported values: Ki for UniProtKB P24941, one per item.
property name: Ki

1) Cc1cccc(Br)c1NC(=O)N1Cc2c(NC(=O)C3([Si](C)(C)C)CCC3)n[nH]c2C1(C)C : ≥ 1000 nM
2) CC1(C)c2[nH]nc(NC(=O)C3([Si](C)(C)C)CCC3)c2CN1C(=O)Nc1c(F)ccc2ccoc12 : ≥ 1000 nM
3) CCc1cccc(F)c1NC(=O)N1Cc2c(NC(=O)C3([Si](C)(C)C)CC3)n[nH]c2C1(C)C : ≥ 1000 nM

###

test system: CDK7 (Homo sapiens, UniProt P50613)
Sequence (P50613 whole entry): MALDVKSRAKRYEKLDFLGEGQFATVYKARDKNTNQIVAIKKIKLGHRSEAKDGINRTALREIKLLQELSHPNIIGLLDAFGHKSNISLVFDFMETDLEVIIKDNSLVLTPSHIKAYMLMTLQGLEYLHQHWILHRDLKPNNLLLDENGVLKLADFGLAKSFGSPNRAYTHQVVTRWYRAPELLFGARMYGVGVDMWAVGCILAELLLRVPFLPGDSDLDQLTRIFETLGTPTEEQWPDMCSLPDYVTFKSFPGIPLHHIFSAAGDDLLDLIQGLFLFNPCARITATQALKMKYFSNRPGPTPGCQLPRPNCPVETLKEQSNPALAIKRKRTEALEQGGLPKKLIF
Sequence (P51946 whole entry partner): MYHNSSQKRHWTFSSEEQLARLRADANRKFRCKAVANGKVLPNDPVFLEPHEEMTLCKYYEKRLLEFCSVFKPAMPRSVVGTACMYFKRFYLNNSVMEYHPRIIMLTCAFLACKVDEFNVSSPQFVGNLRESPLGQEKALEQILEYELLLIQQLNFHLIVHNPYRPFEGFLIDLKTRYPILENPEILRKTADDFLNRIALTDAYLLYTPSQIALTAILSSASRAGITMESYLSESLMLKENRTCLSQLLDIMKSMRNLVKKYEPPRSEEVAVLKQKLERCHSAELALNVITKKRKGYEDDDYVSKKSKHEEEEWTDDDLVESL
Sequence (P51948 whole entry partner): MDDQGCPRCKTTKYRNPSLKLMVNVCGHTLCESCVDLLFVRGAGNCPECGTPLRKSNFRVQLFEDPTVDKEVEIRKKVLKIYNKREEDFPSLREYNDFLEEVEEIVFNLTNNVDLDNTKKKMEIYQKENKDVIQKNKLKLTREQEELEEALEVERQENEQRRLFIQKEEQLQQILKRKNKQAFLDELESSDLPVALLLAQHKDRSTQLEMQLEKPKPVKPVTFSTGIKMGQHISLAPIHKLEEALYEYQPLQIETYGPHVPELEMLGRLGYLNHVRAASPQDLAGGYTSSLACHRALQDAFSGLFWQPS
pKi: −log10 of the molar value.
Listing of entries alongside the reported pKi.
property name: pKi

1. CCc1cccc(F)c1NC(=O)N1Cc2c(NC(=O)C3([Si](C)(C)C)CC3)n[nH]c2C1(C)C [III-137] : ≥ 7.30
2. CC1(C)c2[nH]nc(NC(=O)C3([Si](C)(C)C)CCC3)c2CN1C(=O)Nc1ccsc1 [IV-1045] : ≥ 7.30
3. Cc1ccc(F)c(NC(=O)N2Cc3c(NC(=O)C4([Si](C)(C)C)CCC4)n[nH]c3C2(C)C)c1 [IV-127] : ≥ 7.30
4. CC1(C)c2[nH]nc(NC(=O)C3([Si](C)(C)C)CCC3)c2CN1C(=O)Nc1cccc(F)c1F [IV-99] : ≥ 7.30
5. CC1(C)c2[nH]nc(NC(=O)C3([Si](C)(C)C)CCC3)c2CN1C(=O)Nc1ccccc1OC(F)(F)F [IV-93] : ≥ 7.30
6. Cc1cccc(Br)c1NC(=O)N1Cc2c(NC(=O)C(C)(C)[Si](C)(C)C)n[nH]c2C1(C)C [II-290] : ≥ 7.30
7. COc1cccc(F)c1NC(=O)N1Cc2c(NC(=O)C3([Si](C)(C)C)CCC3)n[nH]c2C1(C)C [IV-161] : ≥ 7.30
8. CC1(C)c2[nH]nc(NC(=O)C3([Si](C)(C)C)CC3)c2CN1C(=O)Nc1c(Cl)cccc1Cl [III-199] : ≥ 7.30
